- Target: T1, SALL4 ZFC4 I897S+V925S (Mus musculus, UniProt Q8BX22 870-940, I897S;V925S)
- T1 sequence: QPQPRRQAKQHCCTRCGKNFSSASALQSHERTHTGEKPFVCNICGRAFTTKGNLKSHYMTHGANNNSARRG
- Procedure text: EMSA; EMSA: 20 mM HEPES pH 7.5, 150 mM K acetate, 5 mM Mg acetate, 10 ng/ul poly(dI-dC), 68.1 nM DNA, on ice 30 min, gel at 4 C. HT-SELEX: 10 mM Tris-HCl pH 7.5, 50 m
- Condition info: protein: recombinant; tags: His6-GST removed with 3C protease; label: DY681
Endpoint label: Kd (µM)
Give bare numbers, in µM.

Could you please provide reported Kd for EMSA AT-rich probe (dsDNA) DNA 1: AAAAAATATTAAAAA DNA 2: TTTTTAATATTTTTT ? Thanks!
5.1
